# Tested on: Streptococcus pneumoniae
# Assay procedure: MIC by NCCLS reference broth microdilution, 450 respiratory tract pathogens
# Assay type: cell-based
# Details: Streptococcus pneumoniae, penicillin resistant (n = 18)
The compounds listed here are annotated with their MIC50.
Output should be the measured figure followed by the unit it is expressed in.

>>> print(df.to_string())
                            smiles_notation  measurement_label     result
0  CO/N=C(\C(=O)N[C@@H]1C(=O)N2C(C(=O)O)=C(COC(N)=O)CS[C@H]12)c1ccco1              MIC50    2 µg/mL
1  C[C@@H]1CN(c2c(F)c(N)c3c(=O)c(C(=O)O)cn(C4CC4)c3c2F)C[C@H](C)N1              MIC50  0.5 µg/mL

# next compound below
Query: MIC50; subject: N[C@@H]1[C@H]2CN(c3nc4c(cc3F)c(=O)c(C(=O)O)cn4-c3ccc(F)cc3F)C[C@@H]12
Response: 0.12 µg/mL

----------
Each record here notes measured MIC.
# Tested on: Gram negative anaerobic pathogens and facultative anaerobic pathogens
# Assay procedure: MIC by agar dilution, Brucella HK agar with 5% laked sheep blood, anaerobic reference strains
# Format: cell-based
# Details: Campylobacter ureolyticus, NCTC10941, Bacteroides ureolyticus NCTC10941; read-out: MIC
Please state the figure in µg/mL; there is no need to write the unit.

                            smiles_notation  numeric_value
0  C[C@@H](O)[C@H]1C(=O)N2C(C(=O)O)=C(SCCN=CN)C[C@H]12           0.25

Query: Look up MIC for this compound: C[C@@H]1CN(c2c(F)c(N)c3c(=O)c(C(=O)O)cn(C4CC4)c3c2F)C[C@H](C)N1
Response: 0.06

----------
MIC values by entry
# Tested on: Gram positive anaerobic and facultative anaerobic pathogens
# Assay procedure: microbe, parasite or virus in culture
# Format: cell-based
# Details: Bifidobacterium longum, ATCC15707

                                   compound  measurement_label   result
0  C[C@@H]1CN(c2c(F)c(N)c3c(=O)c(C(=O)O)cn(C4CC4)c3c2F)C[C@H](C)N1                MIC  2 µg/mL
1  N[C@@H]1[C@H]2CN(c3nc4c(cc3F)c(=O)c(C(=O)O)cn4-c3ccc(F)cc3F)C[C@@H]12                MIC  4 µg/mL
2  CO/N=C1\CN(c2nc3c(cc2F)c(=O)c(C(=O)O)cn3C2CC2)CC1CN (racemic)                MIC  1 µg/mL

Query: Which MIC reading was recorded for the compound C[C@@H](O)[C@H]1C(=O)N2C(C(=O)O)=C(SCCN=CN)C[C@H]12 ?
Response: 0.25 µg/mL

----------
# Test system: Streptococcus pneumoniae
# Assay procedure: MIC by NCCLS reference broth microdilution, 450 respiratory tract pathogens
# Type: cell-based
# Details: Streptococcus pneumoniae, multi-drug resistant (n = 16)
Each record here notes measured MIC.

Solved entries (count: 6):
>>> print(df.to_string())
                                   compound  measurement_label                result
0  N[C@@H]1[C@H]2CN(c3nc4c(cc3F)c(=O)c(C(=O)O)cn4-c3ccc(F)cc3F)C[C@@H]12                MIC    0.06 to 0.12 µg/mL
1  NC1CCN(c2c(F)cc3c(=O)c(C(=O)O)cn(C4CC4)c3c2Cl)C1 (stereo not shown)                MIC    0.06 to 0.12 µg/mL
2  O=C(O)c1cn(C2CC2)c2cc(N3CCNCC3)c(F)cc2c1=O                MIC        0.5 to 4 µg/mL
3  CO/N=C(\C(=O)N[C@@H]1C(=O)N2C(C(=O)O)=C(COC(N)=O)CS[C@H]12)c1ccco1                MIC   0.015 to 0.25 µg/mL
4  CO/N=C1\CN(c2nc3c(cc2F)c(=O)c(C(=O)O)cn3C2CC2)CC1CN (racemic)                MIC  0.0075 to 0.03 µg/mL
5  C[C@@H]1CN(c2c(F)c(N)c3c(=O)c(C(=O)O)cn(C4CC4)c3c2F)C[C@H](C)N1                MIC     0.12 to 0.5 µg/mL

Here is another compound to look at.
Query: I'm curious: which MIC was measured for C[C@H]1COc2c(N3CCN(C)CC3)c(F)cc3c(=O)c(C(=O)O)cn1c23 tested on Streptococcus pneumoniae?
Response: 0.5 to 1 µg/mL
